- Tested on: sensitive L1210 Leukämiezellen
- protocol_summary: Adriamycin uptake in sensitive L1210 cells with and without a lipophilic anthracycline (HPLC/fluorescence)
- Assay type: cell-based
- test_context: anthracycline 1 µg/ml; 1 h, 37°C; sensitive L1210
Documented Adriamycinaufnahme (in % der unbehandelten Kontrolle ohne Zusatz) L1210 across a set of compounds
Only the number, expressed in %, is required.

CC[C@@]1(O)C[C@H](O)c2c(O)c3c(c(O)c2[C@H]1O)C(=O)c1cccc(O)c1C3=O; 96
CCCCCN(C)[C@H]1C[C@H](O[C@H]2C[C@](O)(CC)[C@H](O)c3c(O)c4c(c(O)c32)C(=O)c2c(O)cccc2C4=O)O[C@@H](C)[C@H]1O; 87
CC[C@@]1(O)C[C@H](O)c2c(O)c3c(c(O)c2[C@H]1C(=O)OC)C(=O)c1c(O)ccc(O)c1C3=O; 90

In: Please list Adriamycinaufnahme (in % der unbehandelten Kontrolle ohne Zusatz) L1210 recorded for the compound CCCCCCN(C)[C@H]1C[C@H](O[C@H]2C[C@](O)(CC)[C@H](O)c3c(O)c4c(c(O)c32)C(=O)c2c(O)cccc2C4=O)O[C@@H](C)[C@H]1O
Out: 97
